- target desc: STK3 ; Q13188;Q13188-2 (Homo sapiens, UniProt Q13188)
- Sequence (Q13188 whole entry): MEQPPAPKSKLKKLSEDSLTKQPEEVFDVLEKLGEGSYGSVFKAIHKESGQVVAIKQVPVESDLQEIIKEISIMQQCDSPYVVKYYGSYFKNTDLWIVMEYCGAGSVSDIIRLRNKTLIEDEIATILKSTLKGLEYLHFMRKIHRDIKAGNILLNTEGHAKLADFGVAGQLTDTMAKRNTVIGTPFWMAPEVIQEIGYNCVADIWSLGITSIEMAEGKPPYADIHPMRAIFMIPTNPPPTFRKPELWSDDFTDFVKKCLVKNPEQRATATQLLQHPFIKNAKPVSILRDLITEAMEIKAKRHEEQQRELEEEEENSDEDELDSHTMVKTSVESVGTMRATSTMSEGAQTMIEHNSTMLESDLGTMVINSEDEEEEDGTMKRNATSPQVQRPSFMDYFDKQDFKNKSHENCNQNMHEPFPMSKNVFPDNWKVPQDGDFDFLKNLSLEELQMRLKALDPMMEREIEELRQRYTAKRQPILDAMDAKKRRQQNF
- method summary: biochemical
measured attribute: Kd (nM)
# output: bare number, implied unit nM

Requested read-out Kd, target or system STK3 ; Q13188;Q13188-2 (Homo sapiens, UniProt Q13188), entry "CNCc1ccc(-c2cc(-c3nc(-c4ccc(S(=O)(=O)C(C)C)cc4)cnc3N)on2)cc1"
70.2

###

- Tested on: 13 PDAC cell lines
- method summary: Phenotypic drug combination viability screen (ATPlite, 72 h), cell line panel
- Type: cell-based, human
- applied conditions: Homo sapiens; read-out: EC50
measured attribute: EC50

Requested read-out EC50, target or system 13 PDAC cell lines, entry Nc1ccn([C@@H]2O[C@H](CO)[C@@H](O)C2(F)F)c(=O)n1 [GEM, Gemcitabine]
≥ 1 nM

###

- System: p-sites in DNA-damaged AsPC-1 cells
- method summary: decryptM dose-resolved phosphoproteomics of ATRi in GEM-pre-treated cells
- Format: cell-based, human
- applied conditions: source data 4B (p-site not named); 1 µM GEM + ATRi 3000 nM
measured attribute: PTM response (norm. to 1 µM GEM)
A bare number is all that is needed in reply.

Illustrative cases are given below, each with its answer.
>>> df
                                  structure  numeric_result
0  C[C@@H]1COCCN1c1cc(C2([S@](C)(=N)=O)CC2)nc(-c2cc[nH]c3nccc2-3)n1            0.35
1  C[C@@H]1COCCN1c1cc(-c2ccnn2C)c2ccnc(-c3ccn[nH]3)c2n1            0.30
2  Nc1nn2cc(F)cnc2c1C(=O)Nc1cncc(F)c1N1CCC(C(=O)N2CCN(C3COC3)CC2)CC1            0.17

Shifting focus to the compound that follows.
What value of PTM response (norm. to 1 µM GEM) has been recorded for this entry: "CNCc1ccc(-c2cc(-c3nc(-c4ccc(S(=O)(=O)C(C)C)cc4)cnc3N)on2)cc1"
0.14

###

- System: PaTu-8988-T
- method summary: cells
- Parameters: ATPlite luminescence viability of PDAC cell lines, 11-dose single-agent curves, 4-parameter fit
- applied conditions: Homo sapiens, PaTu 8988t, 72 h, read-out: EC50 [nM]
measured attribute: log10 EC50 (log10 of the value in nM)
All values: base-10 log of EC50 in nM.

Illustrative cases are given below, each with its answer.
>>> print(df.to_string())
                                   molecule  measured_attribute  numeric_result
0  Cc1nc(Nc2ncc(C(=O)Nc3c(C)cccc3Cl)s2)cc(N2CCN(CCO)CC2)n1 [Dasatinib]          log10 EC50            1.22
1  COC(=O)c1ccc2c(c1)NC(=O)/C2=C(\Nc1ccc(N(C)C(=O)CN2CCN(C)CC2)cc1)c1ccccc1 [Nintedanib]          log10 EC50            3.83
2  CC(=O)c1cc2c(o1)C(=O)c1ccccc1C2=O [Napabucasin]          log10 EC50            2.34
3  COc1c(OCCCN2CCOCC2)ccc2c1N=C(NC(=O)c1cnc(N)nc1)N1CCN=C21 [Copanlisib]          log10 EC50            2.00
4  Nc1cc(C(F)(F)F)c(-c2cc(N3CCOCC3)nc(N3CCOCC3)n2)cn1 [Buparlisib]          log10 EC50            2.86

What value of log10 EC50 has been recorded for this entry: CN1CCN(c2ccc3nc(-c4c(N)c5c(F)cccc5[nH]c4=O)[nH]c3c2)CC1 [Dovitinib]
3.50

Try this molecule next: CC(C)NC(=O)[C@H]1CC[C@@H](n2/c(=N/C(=O)c3ccc(F)cc3)[nH]c3ccc(CN4CCC(C(C)(C)O)CC4)cc32)CC1 [Belizatinib]
2.76

###

# maps each entry to its EC50
- Test system: MiaPaCa-2
- method summary: cells
- Set-up: ATPlite luminescence viability of PDAC cell lines, 11-dose single-agent curves, 4-parameter fit
- applied conditions: Homo sapiens, MIA PaCa-2, 72 h, read-out: EC50 [nM]
- Excerpt: Afterward, small amounts were transferred to 384-well intermediate plates (Greiner Bio-One GmbH, Germany). […] Next, we analyzed the drug sensitivity of immortalized duct cell line HPDE to detect effects unrelated to pancreatic cancer.
# output: bare number, implied unit nM

In [3]: df
Out[3]:
                                  structure  unit_descriptor  numeric_result
0  CN(C)C/C=C/C(=O)Nc1cc2c(Nc3ccc(F)c(Cl)c3)ncnc2cc1O[C@H]1CCOC1               nM            1700

What value of EC50 has been recorded for this entry: "Cc1nc(NC(=O)N2CCC[C@H]2C(N)=O)sc1-c1ccnc(C(C)(C)C(F)(F)F)c1"
1400

Try this molecule next: "Cc1cc(Nc2ncc(Cl)c(Nc3ccccc3S(=O)(=O)C(C)C)n2)c(OC(C)C)cc1C1CCNCC1"
563

Try this molecule next: "NC(=O)c1cnc2[nH]ccc2c1N[C@@H]1[C@@H]2CC3C[C@H]1C[C@@](O)(C3)C2"
3920

###

- System: HPDE
- method summary: cells
- Set-up: ATPlite luminescence viability of PDAC cell lines, 11-dose single-agent curves, 4-parameter fit
- applied conditions: HPDE, 72 h, read-out: EC50 [nM]
measured attribute: log10(EC50) (log10 of the value in nM)
All values: base-10 log of EC50 in nM.

What value of log10(EC50) has been recorded for this entry: "CC(=O)Nc1cccc(-n2c(=O)n(C3CC3)c(=O)c3c(Nc4ccc(I)cc4F)n(C)c(=O)c(C)c32)c1"
0.85

Try this compound next: "CNC(=O)c1cccc2cc(Oc3ccnc4cc(OCC5(N)CC5)c(OC)cc34)ccc12"
3.96

Try this compound next: "O=C1CCc2c(Oc3ccc4c(c3)[C@@H]3[C@H](O4)[C@H]3c3nc4cc(C(F)(F)F)ccc4[nH]3)ccnc2N1"
3.30

Try this compound next: "COc1cc(Nc2c(C#N)cnc3cc(OCCCN4CCN(C)CC4)c(OC)cc23)c(Cl)cc1Cl"
3.33

Try this compound next: "CN1CCN(CCOc2cc(OC3CCOCC3)c3c(Nc4c(Cl)ccc5c4OCO5)ncnc3c2)CC1"
3.16

###

- System: p-sites in DNA-damaged AsPC-1 cells
- method summary: decryptM dose-resolved phosphoproteomics of ATRi in GEM-pre-treated cells
- Type: cell-based, human
- applied conditions: HTATSF1-pS481
# maps each entry to its Log2 PTM response (GEM+ATRi vs. GEM)
A bare number is all that is needed in reply.

Illustrative cases are given below, each with its answer.
                                  structure                    measured_attribute  numeric_result
0  Nc1nn2cc(F)cnc2c1C(=O)Nc1cncc(F)c1N1CCC(C(=O)N2CCN(C3COC3)CC2)CC1  Log2 PTM response (GEM+ATRi vs. GEM)            -1.1
1  CNCc1ccc(-c2cc(-c3nc(-c4ccc(S(=O)(=O)C(C)C)cc4)cnc3N)on2)cc1  Log2 PTM response (GEM+ATRi vs. GEM)              -2
2  C[C@@H]1COCCN1c1cc(C2([S@](C)(=N)=O)CC2)nc(-c2cc[nH]c3nccc2-3)n1  Log2 PTM response (GEM+ATRi vs. GEM)            -0.6

What value of Log2 PTM response (GEM+ATRi vs. GEM) has been recorded for this entry: "C[C@@H]1COCCN1c1cc(-c2ccnn2C)c2ccnc(-c3ccn[nH]3)c2n1"
-0.8

###

- System: Colo-357
- method summary: cells
- Design: ATPlite luminescence viability of PDAC cell lines, 11-dose single-agent curves, 4-parameter fit
- applied conditions: Homo sapiens, COLO357, 72 h, read-out: EC50 [nM]
measured attribute: EC50 (nM)
# output: bare number, implied unit nM

                                  structure  numeric_result
0  CN1CCC(COc2cnc(-c3cccc(Cn4nc(-c5cccc(C#N)c5)ccc4=O)c3)nc2)CC1            11.5

Requested read-out EC50, target or system Colo-357, entry "CN1CCN(c2ccc(C(=O)Nc3n[nH]c4ccc(Cc5cc(F)cc(F)c5)cc34)c(NC3CCOCC3)c2)CC1"
4900

Try this compound next: "COc1cc(Nc2ncc(F)c(Nc3ccc4c(n3)N(COP(=O)(O)O)C(=O)C(C)(C)O4)n2)cc(OC)c1OC"
1410

Try this compound next: "COc1cc2nccc(Oc3ccc(NC(=O)Nc4cc(C)on4)c(Cl)c3)c2cc1OC"
6590

Try this compound next: "Cc1cc(Nc2ncc(Cl)c(Nc3ccccc3S(=O)(=O)C(C)C)n2)c(OC(C)C)cc1C1CCNCC1"
2930

Try this compound next: "Cn1ncnc1[C@H]1c2n[nH]c(=O)c3cc(F)cc(c23)N[C@@H]1c1ccc(F)cc1"
355
